Values from patent US12454531B2

- ASSAY_SYSTEM: DGKα (Homo sapiens (Human), UniProt P23743)
- Sequence (P23743 whole entry): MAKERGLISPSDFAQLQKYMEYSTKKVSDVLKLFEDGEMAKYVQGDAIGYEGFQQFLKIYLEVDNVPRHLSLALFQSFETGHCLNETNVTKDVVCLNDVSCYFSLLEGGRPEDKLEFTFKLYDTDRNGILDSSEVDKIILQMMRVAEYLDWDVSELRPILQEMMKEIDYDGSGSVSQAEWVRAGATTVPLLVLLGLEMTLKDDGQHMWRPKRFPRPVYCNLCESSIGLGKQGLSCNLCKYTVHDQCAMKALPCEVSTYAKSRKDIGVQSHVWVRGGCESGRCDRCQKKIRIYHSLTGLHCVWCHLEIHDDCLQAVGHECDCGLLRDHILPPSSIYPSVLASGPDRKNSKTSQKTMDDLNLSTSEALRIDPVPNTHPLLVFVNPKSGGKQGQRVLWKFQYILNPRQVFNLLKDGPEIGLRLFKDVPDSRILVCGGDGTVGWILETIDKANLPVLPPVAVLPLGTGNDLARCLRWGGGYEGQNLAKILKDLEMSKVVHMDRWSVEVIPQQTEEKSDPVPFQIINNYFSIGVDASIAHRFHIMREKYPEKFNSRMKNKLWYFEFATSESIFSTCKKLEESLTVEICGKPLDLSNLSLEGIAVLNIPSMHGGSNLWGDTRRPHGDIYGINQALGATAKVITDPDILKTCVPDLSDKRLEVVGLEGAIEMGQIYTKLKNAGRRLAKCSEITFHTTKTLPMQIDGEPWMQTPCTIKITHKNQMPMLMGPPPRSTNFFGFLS
- ASSAY_PROTOCOL: Assay 1: In Vitro DGK Inhibition Assays, Method A (DGKα LIPGLO, extruded liposome)
- Format: biochemical
- TEST_PARAMETERS: extruded liposome substrate, 150 μM ATP
pIC50: −log10 of the molar value.
pIC50 of 7 or higher: satisfied. Under 7: not satisfied.

[[record]]
molecule = "C[C@@H]1CN(c2cc(=O)n(C)c3ccc(C#N)nc23)[C@@H](C)CN1C(C(=O)N1CCCCC1)c1ccc(F)cc1 (stereo partly shown) [Example 12]"
group = "not satisfied"

[[record]]
molecule = "CC(C)N(C)C(=O)CC(c1ccc(F)cc1)N1C[C@H](C)N(c2cc(=O)n(C)c3ccc(C#N)nc23)C[C@H]1C (stereo partly shown) [Example 41]"
group = "not satisfied"

[[record]]
molecule = "C[C@@H]1CN(c2cc(=O)n(C)c3ccc(C#N)nc23)[C@@H](C)CN1C(C(=O)Nc1ccon1)c1ccc(F)cc1 (stereo partly shown) [Example 30]"
group = "satisfied"

[[record]]
molecule = "C[C@@H]1CN(c2cc(=O)n(C)c3ccc(C#N)nc23)[C@@H](C)CN1C(C(=O)Nc1ccon1)c1ccc(F)cc1 (stereo partly shown) [Example 29]"
group = "not satisfied"

